target: T1, KRAS wt(7-16) peptide … with HLA-A3 and b2M on cells (human); assay: flow cytometry, phage-displayed scFv on peptide-pulsed T2A3 cells (FIG. 8)
T1 construct: peptide-pulsed T2A3 cells in flow cytometry
metric name: binding result

KRAS_G12D_A3_c111 (scFv) scFv: DIQMTQSPSSLSASVGDRVTITCRASQDVNTAVAWYQQKPGKAPKLLIYSASFLYSGVPSRFSGSRSGTDFTLTISSLQPEDFATYYCQQYMYSPVTFGQGTKVEIKRTGGGSGGGGSGGGASEVQLVESGGGLVQPGGSLRLSCAASGFNVSAYWMHWVRQAPGKGLEWVAQIYGGSGYTMYADSVKGRFTISADTSKNTAYLQMNSLRAEDTAVYYCSRTHSYWSAFDYWGQGTLVTVSS :: no binding
KRAS_G12D_A3_D12 (scFv) scFv: DIQMTQSPSSLSASVGDRVTITCRASQDVNTAVAWYQQKPGKAPKLLIYSASFLYSGVPSRFSGSRSGTDFTLTISSLQPEDFATYYCQQSSSSPITFGQGTKVEIKRTGGGSGGGGSGGGASEVQLVESGGGLVQPGGSLRLSCAASGFNISGYGMHWVRQAPGKGLEWVAYLYGGSDYTNYADSVKGRFTISADTSKNTAYLQMNSLRAEDTAVYYCSRTVRYAFDYWGQGTLVTVSS :: no binding
KRAS_G12D_A3_D26 (scFv) scFv: DIQMTQSPSSLSASVGDRVTITCRASQDVNTAVAWYQQKPGKAPKLLIYSASFLYSGVPSRFSGSRSGTDFTLTISSLQPEDFATYYCQQYAYSPLTFGQGTKVEIKRTGGGSGGGGSGGGASEVQLVESGGGLVQPGGSLRLSCAASGFNVSSYGMHWVRQAPGKGLEWVAFIAPRRDYTSYADSVKGRFTISADTSKNTAYLQMNSLRAEDTAVYYCSRKSSYYFDYWGQGTLVTVSS :: no binding

Cited source for all entries: patent US20200079854A1
